Biological target: U937 DHEAS sulphatase (Homo sapiens, UniProt P08842)
Construct: DHEAS sulphatase activity in U937 cell extracts; endogenous in cells
Sequence (P08842 22-583): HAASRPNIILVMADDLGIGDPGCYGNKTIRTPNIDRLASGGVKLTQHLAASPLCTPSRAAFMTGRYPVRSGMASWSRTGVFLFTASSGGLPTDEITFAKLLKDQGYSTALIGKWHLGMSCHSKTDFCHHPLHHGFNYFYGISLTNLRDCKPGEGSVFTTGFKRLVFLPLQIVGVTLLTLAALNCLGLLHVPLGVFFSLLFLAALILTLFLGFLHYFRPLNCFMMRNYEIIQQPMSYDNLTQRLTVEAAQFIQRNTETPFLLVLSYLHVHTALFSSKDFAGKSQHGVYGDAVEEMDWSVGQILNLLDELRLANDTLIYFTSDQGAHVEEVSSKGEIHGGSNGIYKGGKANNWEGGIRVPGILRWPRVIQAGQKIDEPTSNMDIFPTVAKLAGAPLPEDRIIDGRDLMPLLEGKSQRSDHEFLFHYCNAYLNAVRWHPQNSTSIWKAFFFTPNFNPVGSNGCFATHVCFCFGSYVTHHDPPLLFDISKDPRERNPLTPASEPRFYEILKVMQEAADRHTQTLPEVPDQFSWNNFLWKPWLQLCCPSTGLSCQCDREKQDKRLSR
Assay: DHEAS sulphatase activity in U937 cell extracts

- Compound: "C[C@]12CC[C@@H]3c4ccc(OS(N)(=O)=O)cc4CC[C@H]3[C@@H]1CCC2=O [CT 2251, Estrone 3-0-sulphamate]"
  IC50 [nM]: 40
